Target: SIK2 (Homo sapiens)
Sequence (Q9H0K1 whole entry, species assumed): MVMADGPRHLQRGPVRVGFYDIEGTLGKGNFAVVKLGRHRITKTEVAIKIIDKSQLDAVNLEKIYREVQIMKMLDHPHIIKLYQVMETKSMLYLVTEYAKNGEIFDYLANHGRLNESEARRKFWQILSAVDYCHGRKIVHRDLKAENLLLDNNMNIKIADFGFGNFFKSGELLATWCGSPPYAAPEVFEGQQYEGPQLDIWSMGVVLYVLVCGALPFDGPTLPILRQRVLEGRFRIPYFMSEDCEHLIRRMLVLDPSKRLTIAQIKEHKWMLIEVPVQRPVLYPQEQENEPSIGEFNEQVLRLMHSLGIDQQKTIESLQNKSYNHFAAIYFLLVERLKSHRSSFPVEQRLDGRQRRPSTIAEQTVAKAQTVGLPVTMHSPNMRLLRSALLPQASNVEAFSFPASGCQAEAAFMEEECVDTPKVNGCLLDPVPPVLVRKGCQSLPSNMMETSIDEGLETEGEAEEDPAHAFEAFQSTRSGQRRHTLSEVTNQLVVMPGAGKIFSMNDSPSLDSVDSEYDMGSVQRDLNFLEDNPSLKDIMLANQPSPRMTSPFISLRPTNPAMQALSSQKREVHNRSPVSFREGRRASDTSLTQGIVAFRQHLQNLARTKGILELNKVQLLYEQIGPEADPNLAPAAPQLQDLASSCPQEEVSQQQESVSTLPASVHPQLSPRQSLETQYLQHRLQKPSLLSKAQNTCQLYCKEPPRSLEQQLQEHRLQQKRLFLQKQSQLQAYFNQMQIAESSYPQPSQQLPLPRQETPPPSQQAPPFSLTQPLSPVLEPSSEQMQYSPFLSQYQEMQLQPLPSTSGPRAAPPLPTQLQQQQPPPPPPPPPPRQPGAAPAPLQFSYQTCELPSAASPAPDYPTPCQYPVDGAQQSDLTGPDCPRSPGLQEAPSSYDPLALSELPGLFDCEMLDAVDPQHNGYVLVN
Assay: SIK2 Enzymatic Assay Version 1 (ADP Glo)
Type: biochemical
Conditions: enzyme 0.6 nM, 160 μM ATP and 140 μM HDAC5tide (each 2× final concentration); 30 minutes pre-incubation, 4 hours; ADPGlo luminescence; read-out: SIK2 ADP Glo IC50 (μM) (Test Example 1)
readout_name: IC50
Number first, unit second.

Challenge: Which IC50 is reported with SIK2 (Homo sapiens) for this entry: N#Cc1cc(-c2ccn3nc(NC(=O)C4CC4)cc3c2)c(O[C@H]2CNCCOC2)cn1 ?
Response given: 0.014 µM

Challenge: Item COc1ccc(C)cc1-c1ccn2nc(NC(=O)C3CC3)cc2c1 with SIK2 (Homo sapiens) - IC50?
Response given: 0.289 µM

Challenge: For the record N#Cc1cc(-c2ccn3nc(NC(=O)C4CC4)cc3c2)c(OCC(O)(C(F)(F)F)C(F)(F)F)cn1 , what value of IC50 is listed for SIK2 (Homo sapiens)?
Response given: 0.00295 µM

Challenge: What IC50 appears in the records for this compound with SIK2 (Homo sapiens)? Cc1cc(-c2ccn3nc(NC(=O)C4CC4)cc3c2)c(O[C@H]2C[C@H](N)C2)cn1
Response given: 0.000853 µM

Challenge: Request body: readout IC50, system SIK2 (Homo sapiens), query COCCN1CC[C@@H](Oc2cnc(C#N)cc2-c2ccn3nc(NC(=O)C4CC4)cc3c2)C1 . Return the value.
Response given: 0.00261 µM

Challenge: Provide value of IC50 for this record tested with SIK2 (Homo sapiens): CC1(C)CC(Oc2cnc(C#N)cc2-c2ccn3nc(NC(=O)C4CC4)cc3c2)CC(C)(C)N1
Response given: 0.0359 µM

Challenge: Lab note: need IC50 with SIK2 (Homo sapiens) for entry Cc1cc(-c2ccn3nc(NC(=O)C4CC4)cc3c2)c(O[C@H]2CC[C@H](O)C2)cn1 (stereo in doubt) , please look it up.
Response given: 0.00201 µM

Challenge: Enter reported IC50 observed with SIK2 (Homo sapiens) for N#Cc1cc(-c2ccn3nc(NC(=O)C4CC4)cc3c2)c(OCC2CCNC2)cn1 (stereo in doubt)
Response given: 0.00116 µM

Challenge: Item: C[C@H](O)COc1cnc(C#N)cc1-c1ccn2nc(NC(=O)C3CC3)cc2c1 Test system: SIK2 (Homo sapiens) Read-out: IC50 Value: ?
Response given: 0.00426 µM

Challenge: Value wanted: IC50 (SIK2 (Homo sapiens)) of entry Cc1cc(-c2ccn3nc(NC(=O)C4CC4)cc3c2)c(OC2CN(C)C2)cn1
Response given: 0.0095 µM

Challenge: Notebook: pull reported IC50 for SIK2 (Homo sapiens), entry N#Cc1cc(-c2ccn3nc(NC(=O)C4CC4)cc3c2)c(O[C@H]2C[C@@H](CO)C2)cn1
Response given: 0.0028 µM

Challenge: Requested read-out IC50, target or system SIK2 (Homo sapiens), entry CC(C)(O)CNc1cnc(C#N)cc1-c1ccn2nc(NC(=O)C3CC3)cc2c1
Response given: 0.0154 µM

Challenge: Checklist item: IC50 tested on SIK2 (Homo sapiens), entry Cc1cc(-c2ccn3nc(NC(=O)C4CC4)cc3c2)c(O[C@@H]2CC[C@@H](N)C2)cn1 , value?
Response given: 0.000688 µM

Challenge: Notebook: pull reported IC50 for SIK2 (Homo sapiens), entry CC#Cc1cc(-c2ccn3nc(NC(=O)C4CC4)cc3c2)c(OC[C@@H]2CCN(C)C2)cn1
Response given: 0.00106 µM

Challenge: Quick check: IC50 on SIK2 (Homo sapiens), item CN1CCOC[C@@H](Oc2cnc(C#N)cc2-c2ccn3nc(NC(=O)C4CC4)cc3c2)C1 ?
Response given: 0.0123 µM

Challenge: Test system SIK2 (Homo sapiens); read-out IC50; what value for CC1(C)CNC[C@H](COc2ccc(C#N)cc2-c2ccn3nc(NC(=O)C4CC4)cc3c2)O1 ?
Response given: 0.000413 µM

Challenge: Param readout= IC50; system= SIK2 (Homo sapiens); entry= N#Cc1cc(-c2ccn3nc(NC(=O)C4CC4)cc3c2)c(OC[C@H]2CC[C@H](O)CC2)cn1 ; returns value.
Response given: 0.000641 µM

Challenge: Lab note: need IC50 for C[C@](O)(COc1cnc(C#N)cc1-c1ccn2nc(NC(=O)C3CC3)cc2c1)C(F)(F)F (single isomer, unassigned) on SIK2 (Homo sapiens), anyone have it?
Response given: 0.00111 µM

These measurements were taken from patent US20240158392A1.
